# TARGET_OF_ASSAY: human EAAT1 (Homo sapiens, UniProt P43003)
# Sequence (P43003 whole entry): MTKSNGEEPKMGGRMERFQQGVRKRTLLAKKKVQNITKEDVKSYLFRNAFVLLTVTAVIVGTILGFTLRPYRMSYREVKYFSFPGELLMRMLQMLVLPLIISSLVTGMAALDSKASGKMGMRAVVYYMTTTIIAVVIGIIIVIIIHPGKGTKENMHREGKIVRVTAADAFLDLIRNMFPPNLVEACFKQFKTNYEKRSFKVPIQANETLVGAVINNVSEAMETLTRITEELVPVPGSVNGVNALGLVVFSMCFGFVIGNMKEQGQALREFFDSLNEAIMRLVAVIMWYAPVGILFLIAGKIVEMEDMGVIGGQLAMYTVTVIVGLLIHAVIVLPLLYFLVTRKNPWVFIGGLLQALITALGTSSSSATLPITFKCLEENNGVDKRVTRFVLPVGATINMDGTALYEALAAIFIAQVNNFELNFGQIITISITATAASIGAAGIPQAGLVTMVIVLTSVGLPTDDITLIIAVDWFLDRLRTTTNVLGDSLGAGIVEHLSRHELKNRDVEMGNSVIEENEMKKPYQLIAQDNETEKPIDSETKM
# EXPERIMENT: [3H]-D-Asp uptake assay, EAAT1 stably expressed in HEK293 cells
# Assay type: cell-based
# SETTINGS: read-out: IC50 EAAT1; HEK293 cells, [3H]-D-Asp uptake
pIC50: −log10 of the molar value.
QUANTITY_MEASURED: pIC50

The recorded pIC50 for Cl.O=C(O)C[C@H]1CCN[C@@H]1C(=O)O [3a] is < 3.52

* * *

# TARGET_OF_ASSAY: native KA receptors
# EXPERIMENT: Binding affinity at native KA receptors, [3H]-KA, rat cortical synaptosomes
# SETTINGS: native iGluRs
QUANTITY_MEASURED: pIC50 KA (mean ± SEM, in brackets)
Please give only the number in your answer, with no unit.

The recorded pIC50 KA (mean ± SEM, in brackets) for Cl.O=C(O)CC(C(=O)O)[C@@H]1CCN[C@H]1C(=O)O (relative stereo) [3l] is 4.63

The recorded pIC50 KA (mean ± SEM, in brackets) for Cl.O=C(O)C(Cc1c[nH]nn1)[C@@H]1CCN[C@H]1C(=O)O (mixture of isomers) [3p] is 4.23

The recorded pIC50 KA (mean ± SEM, in brackets) for Cl.O=C(O)C(Cc1c[nH]nn1)[C@@H]1CCN[C@H]1C(=O)O (stereo partly shown) [3p-d2] is 4.24

The recorded pIC50 KA (mean ± SEM, in brackets) for Cl.O=C(O)C(Cc1ccccc1)[C@@H]1CCN[C@H]1C(=O)O (relative stereo) [3g] is 4.15

* * *

# TARGET_OF_ASSAY: human EAAT1 (Homo sapiens)
# EXPERIMENT: [3H]-D-Asp uptake assay, EAAT1 stably expressed in HEK293 cells
# Type: cell-based
QUANTITY_MEASURED: IC50

Example results:
COC(C(=O)O)[C@@H]1CCN[C@H]1C(=O)O.Cl (relative stereo) [3j-d1]    > 1000 µM
Cl.Cl.NC(C(=O)O)[C@@H]1CCN[C@H]1C(=O)O (relative stereo) [3k]    > 300 µM
CC[C@H](C(=O)O)[C@H]1CCN[C@@H]1C(=O)O.Cl [3c-s1]    ~100 µM

Now examine the next entry.
The recorded IC50 for CC[C@@H](C(=O)O)[C@H]1CCN[C@@H]1C(=O)O.Cl [3c-s2] is > 300 µM

* * *

# TARGET_OF_ASSAY: GluN1/GluN2D (Rattus norvegicus, UniProt P35439+Q62645)
# Sequence (Q62645 28-1323, other chains not shown): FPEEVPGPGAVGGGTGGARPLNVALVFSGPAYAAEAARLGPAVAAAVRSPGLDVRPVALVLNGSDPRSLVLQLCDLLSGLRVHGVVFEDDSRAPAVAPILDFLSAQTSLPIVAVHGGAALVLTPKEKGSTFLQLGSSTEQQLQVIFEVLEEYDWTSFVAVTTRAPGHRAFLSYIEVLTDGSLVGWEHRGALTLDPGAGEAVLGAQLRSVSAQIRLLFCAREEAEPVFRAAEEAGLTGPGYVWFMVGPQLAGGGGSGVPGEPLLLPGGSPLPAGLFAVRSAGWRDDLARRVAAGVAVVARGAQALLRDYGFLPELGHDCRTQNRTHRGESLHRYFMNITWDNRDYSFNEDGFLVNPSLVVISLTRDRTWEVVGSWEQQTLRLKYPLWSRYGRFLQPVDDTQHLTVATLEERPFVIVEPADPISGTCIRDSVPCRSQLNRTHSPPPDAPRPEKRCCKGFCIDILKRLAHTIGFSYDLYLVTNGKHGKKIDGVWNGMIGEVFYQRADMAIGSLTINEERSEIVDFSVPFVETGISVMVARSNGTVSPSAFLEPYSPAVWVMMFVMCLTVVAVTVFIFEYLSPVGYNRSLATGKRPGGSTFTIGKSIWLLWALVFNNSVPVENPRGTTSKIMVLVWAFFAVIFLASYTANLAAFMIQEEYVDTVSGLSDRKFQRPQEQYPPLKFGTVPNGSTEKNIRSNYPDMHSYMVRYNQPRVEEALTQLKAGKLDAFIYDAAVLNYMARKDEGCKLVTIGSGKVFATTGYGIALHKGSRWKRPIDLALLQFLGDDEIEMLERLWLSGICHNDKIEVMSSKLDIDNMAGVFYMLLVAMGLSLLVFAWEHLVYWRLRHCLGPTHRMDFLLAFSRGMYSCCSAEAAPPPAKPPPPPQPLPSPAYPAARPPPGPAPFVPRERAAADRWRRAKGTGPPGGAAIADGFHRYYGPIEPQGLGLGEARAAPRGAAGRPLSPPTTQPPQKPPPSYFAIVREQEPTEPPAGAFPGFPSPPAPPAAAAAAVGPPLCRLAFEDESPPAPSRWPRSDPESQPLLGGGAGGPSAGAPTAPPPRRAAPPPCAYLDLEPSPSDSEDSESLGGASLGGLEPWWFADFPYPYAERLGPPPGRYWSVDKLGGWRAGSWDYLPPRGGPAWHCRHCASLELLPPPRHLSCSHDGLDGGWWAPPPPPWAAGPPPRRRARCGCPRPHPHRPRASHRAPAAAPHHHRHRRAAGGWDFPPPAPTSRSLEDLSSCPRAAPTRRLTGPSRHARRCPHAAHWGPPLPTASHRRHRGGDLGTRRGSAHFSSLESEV
QUANTITY_MEASURED: Ki (µM)
Answer with a number only, understood to be in µM.

The recorded Ki for Cl.O=C(O)C(Cc1nnn[nH]1)[C@@H]1CCN[C@H]1C(=O)O (relative stereo) [3q-s3,4] is 62

* * *

# TARGET_OF_ASSAY: native KA receptors
# EXPERIMENT: Binding affinity at native KA receptors, [3H]-KA, rat cortical synaptosomes
# SETTINGS: native iGluRs, mean of at least three experiments
QUANTITY_MEASURED: IC50 KA

Cl.O=C(O)C(CCc1ccccc1)[C@@H]1CCN[C@H]1C(=O)O (relative stereo) [3h]    >100 µM
Cl.O=C(O)C(Cc1c[nH]nn1)[C@@H]1CCN[C@H]1C(=O)O (stereo partly drawn) [3p-d1]    >100 µM
CC[C@@H](C(=O)O)[C@H]1CCN[C@@H]1C(=O)O.Cl [3c-s2]    >100 µM
Cl.O=C(O)[C@H]1NCC[C@@H]1[C@H](C(=O)O)c1ccccc1 [3d-s2]    >100 µM
Cl.O=C(O)C(Cc1ccccc1)[C@@H]1CCN[C@H]1C(=O)O (relative stereo) [3g]    71 µM

Now examine the next entry.
The recorded IC50 KA for Cl.O=C(O)CC(C(=O)O)[C@@H]1CCN[C@H]1C(=O)O (relative stereo) [3l] is 23 µM
